Where these numbers come from: ChEMBL document CHEMBL1148396

# study_system: cGMP-specific 3',5'-cyclic phosphodiesterase (Homo sapiens)
property_name: Ki (nM)

Worked cases, answers included:
>  <molecule>
O=C(OCc1ccncc1)N1Cc2c(nc3ccccc3c2O)[C@H]1c1ccc2c(c1)OCO2

>  <study_system>
cGMP-specific 3',5'-cyclic phosphodiesterase (Homo sapiens)

>  <unit_label>
nM

>  <reported_value>
0.23

$$$$
>  <molecule>
O=C(C#Cc1ccccc1)N1Cc2c(nc3ccccc3c2O)C1c1ccc2c(c1)OCO2 (stereo unspecified)

>  <study_system>
cGMP-specific 3',5'-cyclic phosphodiesterase (Homo sapiens)

>  <unit_label>
nM

>  <reported_value>
0.35

$$$$

(P) O=C(CCc1ccccc1)N1Cc2c(nc3ccccc3c2O)C1c1ccc2c(c1)OCO2 (stereo unspecified)
(Q) O=C(OCc1ccncc1)N1Cc2c(nc3ccccc3c2O)C1c1ccc2c(c1)OCO2 (stereo unspecified)
(R) CN(Cc1ccccc1)C(=O)N1Cc2c(nc3ccccc3c2O)C1c1ccc2c(c1)OCO2 (stereo unspecified)
Parameters: sort_field (Ki), sort_dir (desc). Give the order by naming the labels one after another as requested. R, P, Q
(R: 11 nM, P: 4.53 nM, Q: 0.29 nM)
